The values you see were collected from patent US20140193415A1.

Target: human IGF-1R (soluble, analyte in SPR) (human) (UniProt P08069)
Assay: SPR (ProteOn XPR36), 25 C, Fab captured by anti-Fab, IGF-1R as analyte
measuredProperty: Kd (nM)
Numbers only here, please. The scale is nM.

Prompt: Param item = <IGF-1R> L37F7 Fab fragment (affinity-matured <IGF-1R> HUMAB-Clone 18) (Fab, V domains shown) VH: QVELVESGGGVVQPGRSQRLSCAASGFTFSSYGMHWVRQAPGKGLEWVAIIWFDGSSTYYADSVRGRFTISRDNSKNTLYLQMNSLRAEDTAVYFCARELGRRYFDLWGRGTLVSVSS VL: EIVLTQSPATLSLSPGERATLSCRASQSVSSQLAWYQQKPGQAPRLLIYKATNRATGIPARFSGSGSGTDFTLTISSLEPEDFAVYYCQQRSKYPPWTFGQGTKVESK ; retrieve measured Kd.
Response: 1.02

Prompt: Then what about the binder <IGF-1R> L31D7 Fab fragment (affinity-matured <IGF-1R> HUMAB-Clone 18) (Fab, V domains shown) VH: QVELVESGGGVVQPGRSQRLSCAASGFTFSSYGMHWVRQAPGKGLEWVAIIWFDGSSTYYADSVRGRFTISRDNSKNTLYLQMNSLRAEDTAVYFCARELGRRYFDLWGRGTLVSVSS VL: EIVLTQSPATLSLSPGERATLSCRASQSVIQSLAWYQQKPGQAPRLLIYRASKRATGIPARFSGSGSGTDFTLTISSLEPEDFAVYYCQQRSKWPPWTFGQGTKVESK ?
Response: 1.03

Prompt: Then what about the binder <IGF-1R> L39D7 Fab fragment (affinity-matured <IGF-1R> HUMAB-Clone 18) (Fab, V domains shown) VH: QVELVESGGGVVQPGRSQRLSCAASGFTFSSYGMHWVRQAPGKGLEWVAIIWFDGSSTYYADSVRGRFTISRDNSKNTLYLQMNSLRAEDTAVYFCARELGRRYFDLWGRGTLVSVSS VL: EIVLTQSPATLSLSPGERATLSCRASQSVSKQLAWYQQKPGQAPRLLIYNASKRATGIPARFSGSGSGTDFTLTISSLEPEDFAVYYCQQRSKYPPWTFGQGTKVESK ?
Response: 0.769

Prompt: Then what about the binder <IGF-1R> F13B5 Fab fragment (affinity-matured <IGF-1R> HUMAB-Clone 18) (Fab, V domains shown) VH: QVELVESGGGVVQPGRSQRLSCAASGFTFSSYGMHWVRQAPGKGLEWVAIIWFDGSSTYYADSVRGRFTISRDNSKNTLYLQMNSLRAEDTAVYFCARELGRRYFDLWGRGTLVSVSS VL: EIVLTQSPATLSLSPGERATLSCRASQSVSSYLAWYQQKPGQAPRLLIYQASKRATGIPARFSGSGSGTDFTLTISSLEPEDFAVYYCQQRSKYPPWTFGQGTKVESK ?
Response: 1.47

Prompt: Then what about the binder <IGF-1R> L31D11 Fab fragment (affinity-matured <IGF-1R> HUMAB-Clone 18) (Fab, V domains shown) VH: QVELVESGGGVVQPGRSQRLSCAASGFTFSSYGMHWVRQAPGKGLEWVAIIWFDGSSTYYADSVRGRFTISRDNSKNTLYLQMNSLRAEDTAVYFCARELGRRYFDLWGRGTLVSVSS VL: EIVLTQSPATLSLSPGERATLSCRASRSVYSSLAWYQQKPGQAPRLLIYKASSRATGIPARFSGSGSGTDFTLTISSLEPEDFAVYYCQQRSKWPPWTFGQGTKVESK ?
Response: 0.269
